Data provenance is ChEMBL document CHEMBL5120781.

# Assay details: Inhibition of yeast alpha-glucosidase using p-nitrophenyl-alpha-D-glucopyranoside as substrate preincubated with enzyme for 10 mins followed by substrate addition measured after 20 mins by spectrophotometric method
# Design: species or system Saccharomyces cerevisiae
Reported endpoint: pIC50
Quick note: pIC50 means taking -log10 of the concentration in moles per liter.

Below, each entry is followed by its recorded pIC50 result.
- Compound: "O=C(CCc1ccc(O)cc1)c1c(O)cc(O)c2c(C(=O)c3ccc(O)cc3O)c(-c3ccc(O)cc3)oc12"
  pIC50: 6.40
- Compound: "O=C(/C=C/c1ccc2c(c1)[C@H](C(=O)c1ccc(O)cc1O)[C@@H](c1ccc(O)cc1)O2)c1ccc(O)cc1O"
  pIC50: 5.64

Return reported pIC50; argument: COc1ccc(-c2coc3cc4c(c(OC)c3c2=O)OCO4)cc1OC
3.75

Query COc1ccc(C(=O)[C@@H](c2coc3cc(O)ccc3c2=O)C(c2ccc(O)cc2)c2ccc(O)cc2)c(O)c1 next
5.21

Query CCCCCCCCCCCCCCCC1=C(O)C(=O)C2=C(Oc3cc(O)c4c(c3C2(C)C)O[C@@H](c2ccc(O)c(O)c2)[C@H](O)C4)C1=O next
5.85

Query O=C(/C=C/c1ccc2oc(-c3ccc(O)cc3)c(C(=O)c3ccc(O)cc3O)c2c1)c1ccc(O)cc1O next
5.49

Query CCCCCCCCCCCC1=C(O)C(=O)C=C(O)C1=O next
5.62

Query O=C(C[C@@H]1C(=O)c2ccc(O)cc2O[C@H]1c1ccc(O)cc1)c1ccc(O)cc1O next
4.58
